targetEntity: full-length human RORγt (Homo sapiens (Human))
Sequence (P51449 other isoform, or with tags, fused parts or gaps): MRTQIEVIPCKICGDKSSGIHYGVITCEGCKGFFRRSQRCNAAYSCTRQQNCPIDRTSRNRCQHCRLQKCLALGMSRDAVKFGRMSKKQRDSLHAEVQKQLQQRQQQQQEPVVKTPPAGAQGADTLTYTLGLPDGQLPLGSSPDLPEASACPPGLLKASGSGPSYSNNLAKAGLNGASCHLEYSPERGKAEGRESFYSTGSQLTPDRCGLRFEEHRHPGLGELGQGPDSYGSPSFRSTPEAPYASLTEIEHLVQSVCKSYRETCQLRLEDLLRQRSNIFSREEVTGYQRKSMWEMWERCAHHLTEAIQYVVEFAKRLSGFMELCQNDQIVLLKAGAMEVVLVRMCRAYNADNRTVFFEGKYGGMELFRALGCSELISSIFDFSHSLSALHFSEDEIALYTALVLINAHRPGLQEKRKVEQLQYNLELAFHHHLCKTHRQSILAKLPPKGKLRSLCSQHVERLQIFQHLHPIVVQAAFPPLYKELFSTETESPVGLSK
experimentSummary: RORγt (full-length human) reporter assay, Conditions B or C
Assay type: cell-based
measurementContext: read-out: RORγt (FL) Reporter Assay B or C, IC50
Could you please report measured pIC50 for the items listed next?
Remember the convention: pIC50 equals -log10 of concentration in molar.

State the recorded pIC50 for this entry: `C[C@H]1CCCN1C(=O)c1nc(C(=O)N[C@H]2CC[C@H](O)C2)sc1-c1cnc(NC(C)(C)C)cc1C(F)(F)F`
7.60

Would you mind doing CC[C@H](Nc1cc(C(F)F)c(-c2sc(C(=O)NC3CCC3O)nc2C(=O)N2CCC[C@@H]2C)cn1)C(F)(F)F (stereo partly shown) [Example 379] as well?
7.26

Would you mind doing `CC[C@H](Nc1cc(C(F)F)c(-c2sc(C(=O)N[C@@H](C)C(C)(C)O)nc2C(=O)N2CCC[C@@H]2C)cn1)C(F)(F)F` as well?
7.74

Would you mind doing `C[C@H](NC(=O)c1nc(C(=O)N2C3CCC2CC3)c(-c2cnc(N[C@@H](C)C(F)(F)F)cc2C(F)F)s1)C(C)(C)O` as well?
6.74

Would you mind doing `CC[C@H](Nc1cc(C(F)F)c(-c2sc(C(=O)N[C@@H]3CC[C@@H](O)C3)nc2C(=O)N2CC(F)(F)C[C@@H]2C)cn1)C(F)(F)F` as well?
7.20

Would you mind doing `C[C@H]1CCCN1C(=O)c1nc(C(=O)N[C@H]2CC[C@H](O)C2)sc1-c1cnc(NC(C)(C)C)cc1C(F)F` as well?
7.89
